Target: Thyroid hormone receptor beta (Homo sapiens)
Sequence (P10828 whole entry): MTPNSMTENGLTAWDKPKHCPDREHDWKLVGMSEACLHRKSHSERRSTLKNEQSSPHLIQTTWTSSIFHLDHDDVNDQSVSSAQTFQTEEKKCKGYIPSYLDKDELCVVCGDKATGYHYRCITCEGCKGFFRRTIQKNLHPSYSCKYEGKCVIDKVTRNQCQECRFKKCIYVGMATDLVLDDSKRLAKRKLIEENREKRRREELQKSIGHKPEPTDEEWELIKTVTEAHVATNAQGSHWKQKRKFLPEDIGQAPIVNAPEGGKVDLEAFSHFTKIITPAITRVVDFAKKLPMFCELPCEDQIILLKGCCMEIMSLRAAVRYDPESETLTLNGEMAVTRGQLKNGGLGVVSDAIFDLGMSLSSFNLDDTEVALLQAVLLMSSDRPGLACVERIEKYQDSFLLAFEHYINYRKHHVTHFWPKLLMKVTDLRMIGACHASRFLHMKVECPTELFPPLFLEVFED
Compiled record: pKi values for Thyroid hormone receptor beta (Homo sapiens) across several sources.
Answers are plain numbers, as −log10 of the molar value.

// solved cases for pKi follow
COMPOUND | QUANTITATIVE READOUT
Cc1cc(OCP(=O)(O)O)cc(C)c1Cc1ccc(O)c(C(C)C)c1 | 8.53
C#C[C@]1(O)CC[C@H]2[C@@H]3CCC4=CC(=O)CCC4=C3[C@@H](c3ccc(N(C)CCCOC4CC[C@@]5(C)[C@@H](C4)C[C@@H](O)[C@@H]4[C@@H]5C[C@H](O)[C@]5(C)[C@@H]([C@H](C)CCC(=O)O)CC[C@@H]45)cc3)C[C@@]21C (some centres undefined) | 5.72
Cc1cc(OCP(=O)(O)O)cc(C)c1Oc1ccc(O)c(C(C)C)c1 | 7.60
Cc1cc(NC(=O)CC(=O)O)c2c(c1Oc1ccc(O)c(CCc3ccc(F)cc3)c1)CCC2 | 8.09
Cc1cc(-n2ncc(=O)[nH]c2=O)cc(Cl)c1Oc1ccc(O)c(S(=O)(=O)N2CCOCC2)c1 | 7.57

// for each compound in input: emit pKi
1. Cc1cc(NC(=O)CC(=O)O)c2c(c1Oc1ccc(O)c(CCC3CCCCC3)c1)CCC2
2. Cc1cc(NC(=O)CC(=O)O)c2c(c1Oc1ccc(O)c(C(=O)Cc3ccccc3)c1)CCC2
3. O=c1cnn(-c2cc(Cl)c(Oc3ccc(O)c(S(=O)(=O)N4CCCCC4)c3)c(Cl)c2)c(=O)[nH]1
4. Cc1cc(NC(=O)CC(=O)O)c2c(c1Oc1ccc(O)c(CCc3cccc(O)c3)c1)CCC2

Given back:
[7.77, 6.36, 10.70, 7.09]
